Tested on: HT-29
Assay: Growth inhibition of human HT-29 cells after 72 hrs by SRB assay
Assay type: functional, cell-based
Conditions: HT-29, 72 h
Give measured pIC50 for each item. Keep answers brief.
One number for each entry, as −log10 of the molar value.

INSERT INTO assay_data (smiles_input, observation_type, readout_value) VALUES
  ('Cc1c(NC(=O)C2CC2)cc(-c2csc(=O)[nH]2)cc1S(=O)(=O)NC1CCCC1', 'pIC50', 4.55),
  ('COCC(=O)Nc1ccc(-c2csc(=O)[nH]2)cc1S(=O)(=O)NC1CCCC1', 'pIC50', 4.61),
  ('COc1ccc(-c2csc(=O)[nH]2)cc1S(=O)(=O)NC1CCCC1', 'pIC50', 5.41),
  ('O=C(Nc1cc(-c2csc(=O)[nH]2)cc(S(=O)(=O)NC2CCCC2)c1)c1cccs1', 'pIC50', 4.60);

// below: pIC50 requested for another molecule
Problem: Requested field: pIC50. Item: Cc1ccc(-c2csc(=O)[nH]2)cc1S(=O)(=O)NC1CCCC1
Solution: 5.40

====

Target: Bromodomain-containing protein 4 (Homo sapiens, UniProt O60885)
observation type: ΔTm (°C)
Answers are plain numbers, in °C.

Examples with answers:
INSERT INTO measurements (smiles_input, readout_value) VALUES
  ('Nc1ccc(-c2csc(=O)[nH]2)cc1S(=O)(=O)NC1CCCC1', 7.76),
  ('Cc1c(Br)cc(-c2csc(=O)[nH]2)cc1S(=O)(=O)NC1CCCC1', 9.22),
  ('Cc1ccc(-c2csc(=O)[nH]2)cc1S(=O)(=O)NC1CCCC1', 6.3);

Give ΔTm for each of the items listed below.
1. O=C(Nc1cc(-c2csc(=O)[nH]2)cc(S(=O)(=O)NC2CCCC2)c1)C1CC1
2. COc1ccc(-c2csc(=O)[nH]2)cc1S(=O)(=O)NC1CCCC1
3. Cc1c(N)cc(-c2csc(=O)[nH]2)cc1S(=O)(=O)NC1CCCC1

Solution:
1: 8.48; 2: 5.19; 3: 7.25

====

Biological target: CYP3A4 (Homo sapiens)
Sequence (P08684 whole entry): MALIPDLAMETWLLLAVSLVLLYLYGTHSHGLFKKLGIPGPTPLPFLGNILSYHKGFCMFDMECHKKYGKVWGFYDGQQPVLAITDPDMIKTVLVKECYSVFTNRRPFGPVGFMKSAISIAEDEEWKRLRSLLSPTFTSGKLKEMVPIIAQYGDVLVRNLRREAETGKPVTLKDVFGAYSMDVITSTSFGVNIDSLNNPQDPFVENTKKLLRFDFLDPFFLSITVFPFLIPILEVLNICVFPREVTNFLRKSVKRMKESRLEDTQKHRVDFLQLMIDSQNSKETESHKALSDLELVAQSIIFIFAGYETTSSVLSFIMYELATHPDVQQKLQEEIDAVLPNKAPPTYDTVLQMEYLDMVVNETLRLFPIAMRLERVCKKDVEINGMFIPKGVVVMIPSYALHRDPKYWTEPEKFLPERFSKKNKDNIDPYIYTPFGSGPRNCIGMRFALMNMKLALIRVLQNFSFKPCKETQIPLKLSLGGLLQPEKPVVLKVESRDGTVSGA
Assay: Inhibition of CYP3A4 in human liver microsomes at 10 uM using midazolam substrate preincubated for 5 mins before NADPH addition and measured after 20 mins post NADPH addition
Format: ADME
Settings: probe midazolam
Param threshold (20%) applies to inhibition at 20 min, 10 µM; output Fulfilled when value >= threshold, Not fulfilled when value < threshold.

Problem: Does the reported inhibition at 20 min, 10 µM for CNc1cc(-c2csc(=O)[nH]2)cc(S(=O)(=O)NC2CCCC2)c1C fall at or above the 20% mark?
Solution: Fulfilled

====

System: HT-29
Test: Growth inhibition of human HT-29 cells after 72 hrs by SRB assay
Type: functional, cell-based
Conditions: HT-29, 72 h
observation type: IC50
Kindly format the answer as number then unit.

Consider the worked cases shown below.
INSERT INTO measurements (smiles_input, observation_type, readout_value) VALUES
  ('COc1cc2c(cc1-c1c(C)noc1C)ncc1[nH]c(=O)n([C@H](C)c3ccccn3)c12', 'IC50', '0.945 µM'),
  ('Nc1cc(-c2csc(=O)[nH]2)cc(S(=O)(=O)NC2CCCC2)c1', 'IC50', '6.15 µM'),
  ('O=c1[nH]c(-c2cc(Br)cc(S(=O)(=O)NC3CCCC3)c2)cs1', 'IC50', '57.1 µM'),
  ('CCCC(=O)Nc1cc(-c2csc(=O)[nH]2)cc(S(=O)(=O)NC2CCCC2)c1', 'IC50', '13.9 µM');

Problem: // lookup IC50 for CNc1cc(-c2csc(=O)[nH]2)cc(S(=O)(=O)NC2CCCC2)c1C
Solution: 0.85 µM

====

Can you tell me inhibition at 20 min, 10 µM for the items I'm about to list?
Molecular target: UniProt P08684
Assay: Inhibition of CYP3A4 in human liver microsomes at 10 uM preincubated for 5 mins before NADPH addition and measured after 20 mins post NADPH addition
Type: ADME
The reply must contain the numeric value and, after it, the unit.

Examples with their reported inhibition at 20 min, 10 µM follow.
INSERT INTO assay_data (smiles_input, readout_value) VALUES
  ('Nc1ccc(-c2csc(=O)[nH]2)cc1S(=O)(=O)NC1CCCC1', '82%'),
  ('O=C(Nc1cc(-c2csc(=O)[nH]2)cc(S(=O)(=O)NC2CCCC2)c1)c1cccs1', '34%'),
  ('COc1ccc(-c2csc(=O)[nH]2)cc1S(=O)(=O)NC1CCCC1', '30%'),
  ('Cc1c(Br)cc(-c2csc(=O)[nH]2)cc1S(=O)(=O)NC1CCCC1', '53%'),
  ('Cc1ccc(-c2csc(=O)[nH]2)cc1S(=O)(=O)NC1CCCC1', '68%'),
  ('CNc1cc(-c2csc(=O)[nH]2)cc(S(=O)(=O)NC2CCCC2)c1C', '47%');

Give me inhibition at 20 min, 10 µM for each of these compounds, listed below.
1. COc1cc2c(cc1-c1c(C)noc1C)ncc1[nH]c(=O)n([C@H](C)c3ccccn3)c12
2. Cc1sc2c(c1C)C(c1ccc(Cl)cc1)=N[C@@H](CC(=O)OC(C)(C)C)c1nnc(C)n1-2
3. O=C(Nc1cc(-c2csc(=O)[nH]2)cc(S(=O)(=O)NC2CCCC2)c1)C1CC1
4. Cc1c(N)cc(-c2csc(=O)[nH]2)cc1S(=O)(=O)NC1CCCC1

Solution:
["22%", "28%", "21%", "46%"]

====

Experiment: Growth inhibition of human MM1S cells after 72 hrs by CellTiter-Glo luminescent cell viability assay
Details: MM1.S
observation type: IC50 (nM)
One number for each entry, in nM.

INSERT INTO measurements (smiles_input, readout_value) VALUES
  ('O=C(Nc1cc(-c2csc(=O)[nH]2)cc(S(=O)(=O)NC2CCCC2)c1)c1cccs1', 3300),
  ('O=c1[nH]c(-c2ccc(Cl)c(S(=O)(=O)NC3CCCC3)c2)cs1', 3370),
  ('COc1cc2c(cc1-c1c(C)noc1C)ncc1[nH]c(=O)n([C@H](C)c3ccccn3)c12', 299),
  ('Cc1c(N)cc(-c2csc(=O)[nH]2)cc1S(=O)(=O)NC1CCCC1', 570),
  ('CCCC(=O)Nc1cc(-c2csc(=O)[nH]2)cc(S(=O)(=O)NC2CCCC2)c1', 2530),
  ('Cc1c(Br)cc(-c2csc(=O)[nH]2)cc1S(=O)(=O)NC1CCCC1', 999),
  ('Cc1c(NC(=O)c2cccs2)cc(-c2csc(=O)[nH]2)cc1S(=O)(=O)NC1CCCC1', 4090),
  ('O=C(Nc1cc(-c2csc(=O)[nH]2)cc(S(=O)(=O)NC2CCCC2)c1)C1CC1', 1060),
  ('Nc1ccc(-c2csc(=O)[nH]2)cc1S(=O)(=O)NC1CCCC1', 793),
  ('Cc1ccc(-c2csc(=O)[nH]2)cc1S(=O)(=O)NC1CCCC1', 1900);

// for each molecule in input: emit IC50
1. COc1ccc(-c2csc(=O)[nH]2)cc1S(=O)(=O)NC1CCCC1
2. Cc1sc2c(c1C)C(c1ccc(Cl)cc1)=N[C@@H](CC(=O)OC(C)(C)C)c1nnc(C)n1-2
3. Cc1c(NC(=O)C2CC2)cc(-c2csc(=O)[nH]2)cc1S(=O)(=O)NC1CCCC1
4. CNc1cc(-c2csc(=O)[nH]2)cc(S(=O)(=O)NC2CCCC2)c1C
5. Nc1cc(-c2csc(=O)[nH]2)cc(S(=O)(=O)NC2CCCC2)c1
6. COCC(=O)Nc1ccc(-c2csc(=O)[nH]2)cc1S(=O)(=O)NC1CCCC1

Solution:
[2420, 109, 1760, 505, 3580, 2310]

====

Molecular target: ATPase family AAA domain-containing protein 2 (Homo sapiens) (UniProt Q6PL18)
Sequence (Q6PL18 whole entry, the tested form may be a part): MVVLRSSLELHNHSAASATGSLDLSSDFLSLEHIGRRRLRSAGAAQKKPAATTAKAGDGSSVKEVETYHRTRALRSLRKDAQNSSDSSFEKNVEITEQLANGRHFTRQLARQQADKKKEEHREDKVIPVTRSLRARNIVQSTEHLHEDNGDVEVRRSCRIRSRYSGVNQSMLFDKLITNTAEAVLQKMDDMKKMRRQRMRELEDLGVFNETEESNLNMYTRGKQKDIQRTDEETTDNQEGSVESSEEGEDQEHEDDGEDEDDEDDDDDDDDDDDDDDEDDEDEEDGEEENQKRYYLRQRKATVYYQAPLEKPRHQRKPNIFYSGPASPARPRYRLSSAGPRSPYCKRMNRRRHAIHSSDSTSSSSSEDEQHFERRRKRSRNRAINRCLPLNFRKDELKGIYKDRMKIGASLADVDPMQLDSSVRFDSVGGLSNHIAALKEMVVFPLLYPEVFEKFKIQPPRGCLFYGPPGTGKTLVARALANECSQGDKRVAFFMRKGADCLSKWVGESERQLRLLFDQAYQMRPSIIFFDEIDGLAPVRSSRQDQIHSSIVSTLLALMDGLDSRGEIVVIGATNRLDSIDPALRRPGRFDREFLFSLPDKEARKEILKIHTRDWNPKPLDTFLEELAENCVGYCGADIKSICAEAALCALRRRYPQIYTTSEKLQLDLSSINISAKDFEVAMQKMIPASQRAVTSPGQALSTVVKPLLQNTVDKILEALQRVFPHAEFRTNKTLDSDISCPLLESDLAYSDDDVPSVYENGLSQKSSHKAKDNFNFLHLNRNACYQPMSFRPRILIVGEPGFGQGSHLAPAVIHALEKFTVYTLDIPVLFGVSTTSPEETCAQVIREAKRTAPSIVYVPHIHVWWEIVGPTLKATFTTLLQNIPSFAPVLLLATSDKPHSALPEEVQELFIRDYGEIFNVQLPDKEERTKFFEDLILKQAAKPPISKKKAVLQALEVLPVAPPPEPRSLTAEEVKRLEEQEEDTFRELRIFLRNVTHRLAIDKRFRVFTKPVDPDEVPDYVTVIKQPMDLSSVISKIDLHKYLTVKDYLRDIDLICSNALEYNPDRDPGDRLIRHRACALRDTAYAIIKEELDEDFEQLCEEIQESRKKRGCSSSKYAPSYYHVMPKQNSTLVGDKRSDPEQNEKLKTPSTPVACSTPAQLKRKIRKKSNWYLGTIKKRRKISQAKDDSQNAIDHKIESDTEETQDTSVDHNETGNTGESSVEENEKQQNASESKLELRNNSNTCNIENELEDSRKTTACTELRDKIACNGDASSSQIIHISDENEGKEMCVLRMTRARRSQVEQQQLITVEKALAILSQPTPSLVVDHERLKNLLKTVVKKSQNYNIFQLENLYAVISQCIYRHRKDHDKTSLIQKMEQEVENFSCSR
Assay: Binding affinity to ATAD2 (unknown origin) assessed as increase in protein melting temperature at 50 umol by real-time PCR system based thermal shift assay
Exercise: state measured ΔTm for each of the molecules provided.
One number for each entry, in °C.

Look up ΔTm for the entries below, preserving their order.
1. COc1ccc(-c2csc(=O)[nH]2)cc1S(=O)(=O)NC1CCCC1
2. Cc1sc2c(c1C)C(c1ccc(Cl)cc1)=N[C@@H](CC(=O)OC(C)(C)C)c1nnc(C)n1-2
3. Cc1c(N)cc(-c2csc(=O)[nH]2)cc1S(=O)(=O)NC1CCCC1
4. Cc1c(Br)cc(-c2csc(=O)[nH]2)cc1S(=O)(=O)NC1CCCC1

Solution:
1. 1.36
2. 1.04
3. 2.7
4. 3.42

Kindly give each listed record's ΔTm.
1. O=C(Nc1cc(-c2csc(=O)[nH]2)cc(S(=O)(=O)NC2CCCC2)c1)C1CC1
2. Cc1ccc(-c2csc(=O)[nH]2)cc1S(=O)(=O)NC1CCCC1
3. Nc1ccc(-c2csc(=O)[nH]2)cc1S(=O)(=O)NC1CCCC1

Solution:
1. 3.55
2. 1.44
3. 3.28
